These entries and their values trace back to ChEMBL document CHEMBL3352487.

Reported log10(AUC(0-t)) values follow for various compounds
Assay: AUC (0 to t) in Sprague-Dawley rat at 25 mg/kg, po
Format: ADME, organism-based
Design: dose 25 mg/kg, route oral
Conditions: plasma
A value of 2 here means AUC(0-t) of 100 in ng·h/mL, since values are log10.

Item O=CN(O)C[C@@H](CC1CCCC1)C(=O)N1CC=C[C@H]1C(=O)Nc1ccc(F)c[n+]1[O-] has what recorded log10(AUC(0-t))? 3.21

Continue with C=C1C[C@@H](C(=O)Nc2ncc(C)s2)N(C(=O)[C@H](CCCC)CN(O)C=O)C1 4.76

Continue with CCCC[C@H](CN(O)C=O)C(=O)N1CC=C[C@H]1C(=O)Nc1ncc(C)s1 4.34

Continue with CCCC[C@H](CN(O)C=O)C(=O)N1CC=C[C@H]1C(=O)Nc1ccc(F)c[n+]1[O-] 3.52

Now for another entry.
Item Cc1cnc(NC(=O)[C@@H]2C=CCN2C(=O)[C@H](CC2CCCC2)CN(O)C=O)s1 has what recorded log10(AUC(0-t))? 4.09

###

Tested on: Staphylococcus epidermidis
Assay: Antimicrobial activity against methicillin-resistant Staphylococcus epidermidis after 24 hrs by broth microdilution method
Format: functional
Reported MIC values follow for various compounds
Please give a number only; it is taken to be in µg/mL.

Item CCCC[C@H](CN(O)C=O)C(=O)N1[C@H](C(=O)Nc2ncc(C)s2)C[C@H]2CCCC[C@@H]21 has what recorded MIC? 16

Continuing:
Item O=CN(O)C[C@@H](CC1CCCC1)C(=O)N1[C@H](C(=O)Nc2ccc(F)cn2)C[C@H]2CCCC[C@@H]21 has what recorded MIC? 4

Continue with Cc1ccc(NC(=O)[C@@H]2C[C@H]3CCCC[C@@H]3N2C(=O)[C@H](CC2CCCC2)CN(O)C=O)nc1 8

Continue with CCCC[C@H](CN(O)C=O)C(=O)N1C[C@@H](F)C[C@H]1C(=O)Nc1ncc(C)s1 8

###

Tested on: Staphylococcus aureus
Assay: Antimicrobial activity against Staphylococcus aureus after 24 hrs by broth microdilution method
Format: functional
Reported MIC values follow for various compounds
Please give a number only; it is taken to be in µg/mL.

Item CCCC[C@H](CN(O)C=O)C(=O)N1CC=C[C@H]1C(=O)Nc1ccc(Cl)cc1 has what recorded MIC? 8

Continue with CCCC[C@H](CN(O)C=O)C(=O)N1CC=C[C@H]1C(=O)N[C@H](C)c1ccccc1 4

Continue with C=C1C[C@@H](C(=O)Nc2ccccc2)N(C(=O)[C@H](CCCC)CN(O)C=O)C1 1

Continue with C=C1C[C@@H](C(=O)Nc2ccc(F)cn2)N(C(=O)[C@H](CCCC)CN(O)C=O)C1 0.5

Continue with CCCC[C@H](CN(O)C=O)C(=O)N1[C@H](C(=O)Nc2ccc(C)cn2)C[C@H]2CCCC[C@@H]21 8

Continuing:
Item Cc1cnc(NC(=O)[C@@H]2C=CCN2C(=O)[C@H](CC2CCCC2)CN(O)C=O)s1 has what recorded MIC? 0.0312

Continue with CCCC[C@H](CN(O)C=O)C(=O)N1CC=C[C@H]1C(=O)Nc1ccc([N+](=O)[O-])cc1 0.5

###

Assay: AUC (0 to infinity) in Sprague-Dawley rat at 25 mg/kg, po
Type: ADME, organism-based
Design: dose 25 mg/kg, route oral, time infinity
Details: plasma
Hi, to clarify the labels: 1 covers AUC(0-inf) from 10000 ng·h/mL upward, 0 covers anything below 10000 ng·h/mL.

Before answering, review these 3 worked examples.
Assess whether reported AUC(0-inf) for C=C1C[C@@H](C(=O)Nc2ncc(C)s2)N(C(=O)[C@H](CCCC)CN(O)C=O)C1 sits at 10000 ng·h/mL or higher. 1

Continue with O=CN(O)C[C@@H](CC1CCCC1)C(=O)N1CC=C[C@H]1C(=O)Nc1ccc(F)c[n+]1[O-] 0

Continue with CCCC[C@H](CN(O)C=O)C(=O)N1CC=C[C@H]1C(=O)Nc1ccc(F)c[n+]1[O-] 0

Continuing:
Assess whether reported AUC(0-inf) for Cc1cnc(NC(=O)[C@@H]2C=CCN2C(=O)[C@H](CC2CCCC2)CN(O)C=O)s1 sits at 10000 ng·h/mL or higher. 1

Continue with CCCC[C@H](CN(O)C=O)C(=O)N1CC=C[C@H]1C(=O)Nc1ncc(C)s1 1

###

Assay: Volume of distribution at steady state in Sprague-Dawley rat at 5 mg/kg, iv
Assay type: ADME, organism-based
Parameters: dose 5 mg/kg, route intravenous
Conditions: in vivo, read-out: Vdss
Reported Vd values follow for various compounds
Please give a number only; it is taken to be in L/kg.

In the examples that follow, each entry is paired with its recorded Vd.
Item Cc1cnc(NC(=O)[C@@H]2C=CCN2C(=O)[C@H](CC2CCCC2)CN(O)C=O)s1 has what recorded Vd? 1.37

Continue with CCCC[C@H](CN(O)C=O)C(=O)N1CC=C[C@H]1C(=O)Nc1ccc(F)c[n+]1[O-] 1.72

Continue with C=C1C[C@@H](C(=O)Nc2ncc(C)s2)N(C(=O)[C@H](CCCC)CN(O)C=O)C1 0.571

Continue with CCCC[C@H](CN(O)C=O)C(=O)N1CC=C[C@H]1C(=O)Nc1ncc(C)s1 1.01

Now for another entry.
Item O=CN(O)C[C@@H](CC1CCCC1)C(=O)N1CC=C[C@H]1C(=O)Nc1ccc(F)c[n+]1[O-] has what recorded Vd? 1.6

###

Biological target: hERG (KCNH2) (Homo sapiens)
Sequence (Q12809 whole entry): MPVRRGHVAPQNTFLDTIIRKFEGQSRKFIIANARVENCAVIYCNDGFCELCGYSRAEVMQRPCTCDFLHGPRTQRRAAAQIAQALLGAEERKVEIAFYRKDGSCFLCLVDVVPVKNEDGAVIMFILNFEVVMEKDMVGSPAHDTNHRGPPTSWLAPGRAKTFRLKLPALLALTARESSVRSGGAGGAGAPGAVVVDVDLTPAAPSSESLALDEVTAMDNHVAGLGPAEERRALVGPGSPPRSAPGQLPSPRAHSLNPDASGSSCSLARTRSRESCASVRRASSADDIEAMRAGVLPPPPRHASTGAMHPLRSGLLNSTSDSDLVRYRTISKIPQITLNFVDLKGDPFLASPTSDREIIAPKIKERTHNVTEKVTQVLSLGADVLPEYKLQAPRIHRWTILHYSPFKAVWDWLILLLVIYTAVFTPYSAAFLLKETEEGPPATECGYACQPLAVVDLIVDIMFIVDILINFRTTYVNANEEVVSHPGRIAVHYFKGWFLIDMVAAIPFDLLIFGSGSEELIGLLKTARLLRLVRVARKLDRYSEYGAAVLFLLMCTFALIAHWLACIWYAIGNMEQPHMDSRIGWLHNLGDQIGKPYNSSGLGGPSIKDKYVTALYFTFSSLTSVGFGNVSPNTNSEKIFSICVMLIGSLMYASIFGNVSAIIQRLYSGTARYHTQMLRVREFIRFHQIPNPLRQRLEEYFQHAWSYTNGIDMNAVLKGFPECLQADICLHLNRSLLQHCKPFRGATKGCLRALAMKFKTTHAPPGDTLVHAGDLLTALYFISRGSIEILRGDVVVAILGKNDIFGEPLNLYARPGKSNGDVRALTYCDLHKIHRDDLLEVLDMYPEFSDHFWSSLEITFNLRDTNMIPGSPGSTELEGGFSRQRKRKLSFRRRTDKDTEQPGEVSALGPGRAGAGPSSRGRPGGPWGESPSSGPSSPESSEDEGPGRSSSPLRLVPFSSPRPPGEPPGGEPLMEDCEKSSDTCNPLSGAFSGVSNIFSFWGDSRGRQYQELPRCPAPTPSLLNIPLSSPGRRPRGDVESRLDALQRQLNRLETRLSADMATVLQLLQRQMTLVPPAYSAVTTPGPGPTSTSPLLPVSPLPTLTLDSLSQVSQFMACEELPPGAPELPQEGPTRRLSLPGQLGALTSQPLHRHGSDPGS
Assay: Inhibition of human ERG at 10 uM
measured.metric: inhibition at 10 µM (%)
Please give a number only; it is taken to be in %.

Item O=CN(O)C[C@@H](CC1CCCC1)C(=O)N1CC=C[C@H]1C(=O)Nc1ccc(F)c[n+]1[O-] has what recorded inhibition at 10 µM? 0.89

###

Experiment: AUC (0 to t) in Sprague-Dawley rat at 5 mg/kg, iv
Type: ADME, organism-based
Design: dose 5 mg/kg, route intravenous
Conditions: plasma
Hi, to clarify the labels: yes covers AUC(0-t) from 5000 ng·h/mL upward, no covers anything below 5000 ng·h/mL.

Before answering, review these 3 worked examples.
Assess whether reported AUC(0-t) for Cc1cnc(NC(=O)[C@@H]2C=CCN2C(=O)[C@H](CC2CCCC2)CN(O)C=O)s1 sits at 5000 ng·h/mL or higher. no

Continue with O=CN(O)C[C@@H](CC1CCCC1)C(=O)N1CC=C[C@H]1C(=O)Nc1ccc(F)c[n+]1[O-] no

Continue with CCCC[C@H](CN(O)C=O)C(=O)N1CC=C[C@H]1C(=O)Nc1ccc(F)c[n+]1[O-] no

Continuing:
Assess whether reported AUC(0-t) for C=C1C[C@@H](C(=O)Nc2ncc(C)s2)N(C(=O)[C@H](CCCC)CN(O)C=O)C1 sits at 5000 ng·h/mL or higher. yes

###

Test system: Enterococcus faecium
Assay: Antimicrobial activity against Enterococcus faecium X7501 after 24 hrs by broth microdilution method
Format: functional
Settings: X7501, 24 h
Label t when MIC is strictly below 2 µg/mL; otherwise label f.

Could you please tell me whether MIC recorded for CC1(C)S[C@@H]2[C@H](NC(=O)[C@H](N)c3ccc(O)cc3)C(=O)N2[C@H]1C(=O)O [AMOXICILLIN] is less than 2 µg/mL? f

Continue with O=CN(O)C[C@@H](CC1CCCC1)C(=O)N1CC=C[C@H]1C(=O)Nc1ccc(F)c[n+]1[O-] t

Continue with C=C1C[C@@H](C(=O)Nc2ccc(F)cn2)N(C(=O)[C@H](CCCC)CN(O)C=O)C1 f

Continue with O=CN(O)C[C@@H](CC1CCCC1)C(=O)N1CC=C[C@H]1C(=O)Nc1ccccc1 t

Continue with O=CN(O)C[C@@H](CC1CCCC1)C(=O)N1CC=C[C@H]1C(=O)Nc1ccc(F)cc1 t

Continue with Cc1cnc(NC(=O)[C@@H]2C=CCN2C(=O)[C@H](CC2CCCC2)CN(O)C=O)s1 t

###

Tested on: Moraxella catarrhalis
Assay: Antimicrobial activity against Moraxella catarrhalis after 24 hrs by broth microdilution method
Assay type: functional
measured.metric: MIC

Under Moraxella catarrhalis: MIC value of Cc1ccc(NC(=O)[C@@H]2C[C@H]3CCCC[C@@H]3N2C(=O)[C@H](CC2CCCC2)CN(O)C=O)nc1 ? 0.5 µg/mL

Continue with CCCC[C@H](CN(O)C=O)C(=O)N1C[C@@H](F)C[C@H]1C(=O)Nc1ncc(C)s1 0.25 µg/mL

Continue with C[C@H]1C[C@@H](C(=O)Nc2ccc(F)c[n+]2[O-])N(C(=O)[C@H](CC2CCCC2)CN(O)C=O)C1 0.5 µg/mL

Continue with Cc1cnc(NC(=O)[C@@H]2C[C@H]3CCCC[C@@H]3N2C(=O)[C@H](CC2CCCC2)CN(O)C=O)s1 0.5 µg/mL

Continue with O=CN(O)C[C@@H](CC1CCCC1)C(=O)N1C[C@@H](F)C[C@H]1C(=O)Nc1ccc(F)c[n+]1[O-] 0.25 µg/mL

Continue with O=CN(O)C[C@@H](CC1CCCC1)C(=O)N1[C@H](C(=O)Nc2ccc(F)cn2)C[C@H]2CCCC[C@@H]21 0.03 µg/mL

Continue with Cc1cnc(NC(=O)[C@@H]2C[C@H](C)CN2C(=O)[C@H](CC2CCCC2)CN(O)C=O)s1 0.5 µg/mL

Now for another entry.
Under Moraxella catarrhalis: MIC value of CCCC[C@H](CN(O)C=O)C(=O)N1C[C@@H](F)C[C@H]1C(=O)Nc1ccc(F)c[n+]1[O-] ? 0.25 µg/mL
